System: 786-0 renal
test-description: NCI-60 one-dose screen, 48 h (100 = growth as untreated, 0 = no growth, -100 = all killed)
experimental-conditions: 10 µM unless noted
About 83,000 compounds went through this panel and 20% of them were active in at least one assay; those are over-represented in the sample as a whole.
growth values, listed per item
Please state the figure in %; there is no need to write the unit.

# sample-smiles, metric, meas-value
data = [
    ("CCCCOc1c(N)cc(Cl)cc1C(=O)OCCN(CC)CC", "growth", 92.8),
]

Q) Look at this compound and give its reported growth. `CC(C)(C)C(=O)Nc1nc2c(s1)CCc1ccn(S(=O)(=O)c3ccccc3)c1-2`
A) 81.8

Q) Look at this compound and give its reported growth. `CCOc1ccc(Cc2nccc3cc(OCC)c(OCC)cc23)cc1OCC`
A) 64.8

Q) Look at this compound and give its reported growth. `O=C(NCCNc1nccc(-c2c(-c3cccc(O)c3)nc3sccn23)n1)Nc1cc(C(F)(F)F)cc(C(F)(F)F)c1`
A) 82

Q) Look at this compound and give its reported growth. `O=C(Nc1ccc(-n2ccc3c(NC(=O)c4ccccc4)nccc32)cc1)c1ccc(Cl)c(C(F)(F)F)c1`
A) 22.9
